- Test system: MKL-1
- method: qHTS assay to identify novel small-molecules to repurpose for Merkel cell carcinoma treatment (AID 1296009); also: nearly all actives have a fitted effect of over 60% in size
- experimental.conditions: MCC and control cell lines, CellTiter-Glo viability, 72 h; series mostly up to 46 µM
Inconclusive results are not listed. Activity calls are given as the source filed them. Calls follow the shape of the dose curve; as a rule, active = well fitted inhibition curve with a large enough effect; inconclusive = small, poorly fitted or top-dose-only effect; inactive = flat fitted curve, though single readings scatter.
Tick one outcome: active, inactive

{"columns": ["molecule", "tested.target", "class.assignment"],
 "data": [
  ["CO/N=C(\\C(=O)N[C@@H]1C(=O)N2C(C(=O)O)=C(CSc3nc(=O)c(O)nn3C)CS[C@H]12)c1csc(N)n1", "MKL-1", "inactive"],
  ["CCCCC(CC)COC(=O)c1ccccc1O (centres undefined)", "MKL-1", "inactive"],
  ["CC(=O)Oc1ccc(C2(c3ccc(OC(C)=O)cc3)C(=O)Nc3ccccc32)cc1", "MKL-1", "inactive"],
  ["CN1CCCCC1CCN1c2ccccc2Sc2ccc(S(C)=O)cc21 (centres undefined)", "MKL-1", "inactive"],
  ["O=S(=O)(O)c1cc(I)c(O)c2ncccc12", "MKL-1", "inactive"]
]}

query: Field: outcome | Entry: NC(=O)N/N=C/c1ccc([N+](=O)[O-])o1
result: active

query: Field: outcome | Entry: C[C@]12C[C@H](O)[C@H]3[C@@H](CCC4=CC(=O)CC[C@@]43C)[C@@H]1CC[C@@H]2C(=O)CO
result: inactive

query: Field: outcome | Entry: CC1(C)S[C@@H]2[C@H](NC(=O)Cc3ccccc3)C(=O)N2[C@H]1C(=O)O (tested in a mixture with another compound)
result: inactive

query: Field: outcome | Entry: O=C1N=C(O)CN1/N=C/c1ccc(-c2ccc([N+](=O)[O-])cc2)o1
result: inactive
